Target: Cannabinoid receptor 2 (Homo sapiens)
Sequence (P34972 whole entry): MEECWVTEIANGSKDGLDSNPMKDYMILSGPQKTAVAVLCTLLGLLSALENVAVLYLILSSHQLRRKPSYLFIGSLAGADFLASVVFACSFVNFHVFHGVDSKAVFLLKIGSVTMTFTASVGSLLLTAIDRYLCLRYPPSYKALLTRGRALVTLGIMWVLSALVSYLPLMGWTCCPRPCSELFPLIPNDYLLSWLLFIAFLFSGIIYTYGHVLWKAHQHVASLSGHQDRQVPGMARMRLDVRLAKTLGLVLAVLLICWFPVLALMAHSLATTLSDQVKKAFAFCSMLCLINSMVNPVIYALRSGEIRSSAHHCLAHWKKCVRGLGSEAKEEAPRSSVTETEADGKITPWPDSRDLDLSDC
Assay: Agonist activity at human CB2 receptor expressed in CHO-K1 cells co-transfected with human Galpha16 assessed as intracellular calcium flux at 10 uM relative to control
Assay type: functional, cell-based
Details: filed as agonist
EXPERIMENTAL_READOUT: Emax

smiles_structure=COCCn1nc(C(=O)NC(C)(C)CO)cc1-c1cccs1 tested_system="Cannabinoid receptor 2 (Homo sapiens)" experimental_readout=Emax assay_value=46%
smiles_structure=CC(C)(CO)NC(=O)c1cc(-c2cccs2)n(CC2CC2)n1 tested_system="Cannabinoid receptor 2 (Homo sapiens)" experimental_readout=Emax assay_value=55%
smiles_structure=CCCCCCC(C)(C)c1ccc([C@@H]2C[C@H](C)CC[C@H]2CCCO)c(O)c1 tested_system="Cannabinoid receptor 2 (Homo sapiens)" experimental_readout=Emax assay_value=100%
smiles_structure=Cc1ccc(-n2nc(C(=O)NC(C)(C)CO)cc2-c2cccs2)cc1 tested_system="Cannabinoid receptor 2 (Homo sapiens)" experimental_readout=Emax assay_value=45%
smiles_structure=CCCCCn1nc(C(=O)NC(C)(C)CO)cc1-c1cccs1 tested_system="Cannabinoid receptor 2 (Homo sapiens)" experimental_readout=Emax assay_value=95%
smiles_structure=CCCCCn1nc(C(=O)NC(C)(C)CO)cc1-c1ccsc1 tested_system="Cannabinoid receptor 2 (Homo sapiens)" experimental_readout=Emax assay_value=50%
smiles_structure=CC(C)(CO)NC(=O)c1cc(-c2cccs2)n(-c2ccc(Cl)cc2)n1 tested_system="Cannabinoid receptor 2 (Homo sapiens)" experimental_readout=Emax assay_value=82%
smiles_structure=CCCCCn1nc(C(=O)NC(C)(C)CO)cc1-c1cccn1CC tested_system="Cannabinoid receptor 2 (Homo sapiens)" experimental_readout=Emax assay_value=76%
smiles_structure=CCCCn1nc(C(=O)NC(C)(C)CO)cc1-c1cccs1 tested_system="Cannabinoid receptor 2 (Homo sapiens)" experimental_readout=Emax assay_value=90%
smiles_structure=CCCCCCn1nc(C(=O)NC(C)(C)CO)cc1-c1cccs1 tested_system="Cannabinoid receptor 2 (Homo sapiens)" experimental_readout=Emax assay_value=72%
smiles_structure=CCCCCn1nc(C(=O)NC(C)(C)CO)cc1-c1cccn1C tested_system="Cannabinoid receptor 2 (Homo sapiens)" experimental_readout=Emax assay_value=90%
smiles_structure=CC(C)(CO)NC(=O)c1cc(-c2cccs2)n(-c2ccc(F)cc2)n1 tested_system="Cannabinoid receptor 2 (Homo sapiens)" experimental_readout=Emax assay_value=48%
smiles_structure=CCCCCn1nc(C(=O)NC(C)(C)CO)cc1-c1sccc1Cl tested_system="Cannabinoid receptor 2 (Homo sapiens)" experimental_readout=Emax assay_value=76%
smiles_structure=CCCCCn1nc(C(=O)NC(C)(C)CO)cc1-c1sccc1C tested_system="Cannabinoid receptor 2 (Homo sapiens)" experimental_readout=Emax assay_value=85%

* * *

Entries and their measured EC50 follow.
Molecular target: UniProt:P34972
Experiment: Agonist activity at human CB2 receptor expressed in CHO-K1 cells co-transfected with human Galpha16 assessed as intracellular calcium flux
Type: functional, cell-based
EXPERIMENTAL_READOUT: EC50 (nM)

smiles_structure=CCCCn1nc(C(=O)NC(C)(C)CO)cc1-c1cccn1C(C)C tested_system=UniProt:P34972 measure_unit=nM bound_type=> assay_value=100000
smiles_structure=CC(C)(CO)NC(=O)c1cc(-c2cccs2)n(CC2CC2)n1 tested_system=UniProt:P34972 measure_unit=nM bound_type== assay_value=174
smiles_structure=CCCCCCn1nc(C(=O)NC(C)(C)CO)cc1-c1cccs1 tested_system=UniProt:P34972 measure_unit=nM bound_type== assay_value=19.5
smiles_structure=CCCCCn1nc(C(=O)NC(C)(C)CO)cc1-c1sccc1C tested_system=UniProt:P34972 measure_unit=nM bound_type== assay_value=274
smiles_structure=Cc1ccc(-n2nc(C(=O)NC(C)(C)CO)cc2-c2cccs2)cc1 tested_system=UniProt:P34972 measure_unit=nM bound_type== assay_value=1040
smiles_structure=COc1ccc(-n2nc(C(=O)NC(C)(C)CO)cc2-c2cccs2)cc1 tested_system=UniProt:P34972 measure_unit=nM bound_type=> assay_value=100000

* * *

Target: Cannabinoid receptor 2 (Homo sapiens)
Assay: Antagonist activity at human CB2 receptor expressed in CHO-K1 cells co-transfected with human Galpha16 assessed as intracellular calcium flux
pIC50: −log10 of the molar value.
Entries and their measured pIC50 follow.
EXPERIMENTAL_READOUT: pIC50

smiles_structure=CCCCCCn1nc(C(=O)NC(C)(C)CO)cc1-c1cccs1 assay_value="< 4.00"
smiles_structure=CCCCCn1nc(C(=O)NC(C)(C)CO)cc1-c1cccn1CC assay_value="< 4.00"
smiles_structure=CCCCCn1nc(C(=O)NC(C)(C)CO)cc1-c1ccsc1 assay_value="< 4.00"
smiles_structure=CCCCn1nc(C(=O)NC(C)(C)CO)cc1-c1cncs1 assay_value="< 4.00"
smiles_structure=CC(C)(CO)NC(=O)c1cc(-c2cccs2)n(-c2ccc(Cl)cc2)n1 assay_value="< 4.00"
smiles_structure=CC(C)(CO)NC(=O)c1cc(-c2cccs2)n(CC2CC2)n1 assay_value="< 4.00"
smiles_structure=CCCCCn1nc(C(=O)NC(C)(C)CO)cc1-c1cc(Cl)cs1 assay_value=7.46
smiles_structure=CCCCCn1nc(C(=O)NC(C)(C)CO)cc1-c1cc(C)cs1 assay_value=7.16
smiles_structure=CCCCCCC(C)(C)c1ccc([C@@H]2C[C@H](C)CC[C@H]2CCCO)c(O)c1 assay_value="< 4.00"
smiles_structure=CCCCCn1nc(C(=O)NC(C)(C)CO)cc1-c1ccc(C)s1 assay_value=7.55
smiles_structure=CCCCn1nc(C(=O)NC(C)(C)CO)cc1-c1cccn1C(C)C assay_value="< 4.00"
smiles_structure=CCCCn1nc(C(=O)NC(C)(C)CO)cc1-c1ccn(C)c1 assay_value="< 4.00"
smiles_structure=CC(C)(CO)NC(=O)c1cc(-c2cccs2)n(-c2ccc(F)cc2)n1 assay_value="< 4.00"
smiles_structure=COCCn1nc(C(=O)NC(C)(C)CO)cc1-c1cccs1 assay_value="< 4.00"
smiles_structure=CCCCCn1nc(C(=O)NC(C)(C)CO)cc1-c1sccc1Cl assay_value="< 4.00"
smiles_structure=CCCCCn1nc(C(=O)NC(C)(C)CO)cc1-c1nccs1 assay_value="< 4.00"
smiles_structure=CCCCCn1nc(C(=O)NC(C)(C)CO)cc1-c1ccc(Cl)s1 assay_value=7.49
smiles_structure=Cc1ccc(-n2nc(C(=O)NC(C)(C)CO)cc2-c2cccs2)cc1 assay_value="< 4.00"

* * *

Molecular target: Cannabinoid receptor 1 (Homo sapiens)
Assay: Agonist activity at human CB1 receptor expressed in CHO-K1 cells co-transfected with human Galpha16 assessed as intracellular calcium flux
Assay type: functional, cell-based
Entries and their measured EC50 follow.
EXPERIMENTAL_READOUT: EC50

smiles_structure=CCCCCn1nc(C(=O)NC(C)(C)CO)cc1-c1sccc1C assay_value="0.424 µM"
smiles_structure=CC(C)(CO)NC(=O)c1cc(-c2cccs2)n(-c2ccc(F)cc2)n1 assay_value="> 100 µM"
smiles_structure=CCCCCn1nc(C(=O)NC(C)(C)CO)cc1-c1ccsc1 assay_value="> 100 µM"
smiles_structure=CCCCCn1nc(C(=O)NC(C)(C)CO)cc1-c1cc(C)cs1 assay_value="> 100 µM"
smiles_structure=COCCn1nc(C(=O)NC(C)(C)CO)cc1-c1cccs1 assay_value="> 100 µM"
smiles_structure=CCCCCn1nc(C(=O)NC(C)(C)CO)cc1-c1ccc(C)s1 assay_value="> 100 µM"

* * *

Molecular target: Cannabinoid receptor 1 (Homo sapiens, UniProt P21554)
Sequence (P21554 whole entry): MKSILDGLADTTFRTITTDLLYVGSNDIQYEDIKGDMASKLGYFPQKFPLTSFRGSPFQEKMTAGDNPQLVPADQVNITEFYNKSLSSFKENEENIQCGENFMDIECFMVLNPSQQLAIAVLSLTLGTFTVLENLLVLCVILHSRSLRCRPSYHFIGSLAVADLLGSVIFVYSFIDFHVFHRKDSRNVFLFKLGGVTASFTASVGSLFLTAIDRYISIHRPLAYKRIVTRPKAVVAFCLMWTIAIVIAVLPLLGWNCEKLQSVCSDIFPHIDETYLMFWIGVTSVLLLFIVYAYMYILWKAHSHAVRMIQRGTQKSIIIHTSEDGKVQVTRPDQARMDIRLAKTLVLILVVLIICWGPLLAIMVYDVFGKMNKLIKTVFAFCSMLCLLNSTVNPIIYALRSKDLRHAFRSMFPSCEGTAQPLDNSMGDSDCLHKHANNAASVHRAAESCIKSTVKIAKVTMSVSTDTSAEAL
Assay: Partial agonist activity at human CB1 receptor expressed in CHO-K1 cells co-transfected with human Galpha16 assessed as intracellular calcium flux
Format: functional, cell-based
EXPERIMENTAL_READOUT: EC50 (nM)

smiles_structure=CCCCCn1nc(C(=O)NC(C)(C)CO)cc1-c1ccco1 tested_system="Cannabinoid receptor 1 (Homo sapiens, UniProt P21554)" measure_unit=nM assay_value=957
